Tested on: SKOV3
Assay: Primary qHTS to identify gynecologic anti-cancer compounds using libraries of approved drugs and bioactive compounds (AID 1345084); also: % is scaled to controls: 0 for no effect and ±100 for the full control effect; nearly all actives have a fitted effect of over 55% in size
Settings: Gynecologic cancer cell panel viability, ATPlite luminescence, 48 h; series mostly up to 57.5 µM
Records with an inconclusive call do not appear. Activity calls are given as the source filed them. Calls follow the shape of the dose curve; as a rule, active = well fitted cell-killing curve with a large enough effect; inconclusive = small, poorly fitted or top-dose-only effect, or effect the other way; inactive = flat fitted curve, though single readings scatter.
Answer with one of the outcomes given here: t for active, f for inactive

Write down the call the test reported for this molecule. Item: CC(C)C(C#N)O[C@@H]1O[C@H](CO[C@@H]2O[C@@H](C)[C@H](O)[C@@H](O)[C@H]2O)[C@@H](O)[C@H](O)[C@H]1O (some centres not stated)
f

---

Test system: C33A
Experiment: Primary qHTS to identify gynecologic anti-cancer compounds using libraries of approved drugs and bioactive compounds (AID 1345084); also: % is scaled to controls: 0 for no effect and ±100 for the full control effect; nearly all actives have a fitted effect of over 55% in size
Conditions: Gynecologic cancer cell panel viability, ATPlite luminescence, 48 h; series mostly up to 57.5 µM
Results filed as inconclusive are left out. Calls of active or inactive are those of the source. Calls come from the whole dose curve; as a rule, active = well fitted cell-killing curve with a large enough effect; inconclusive = small, poorly fitted or top-dose-only effect, or effect the other way; inactive = flat fitted curve, though single readings scatter.
measuredParameter: activity change, negative = cytotoxicity

These recorded examples may help you get a feel for the data.
molecule: CC1(C)CC[C@]2(C(=O)O[C@@H]3O[C@H](CO)[C@@H](O)[C@H](O)[C@H]3O)CC[C@]3(C)C(=CCC4[C@@]5(C)CC[C@H](O[C@@H]6O[C@H](C(=O)O)[C@@H](O)[C@H](O[C@@H]7O[C@H](CO)[C@H](O)[C@H](O)[C@H]7O)[C@H]6O)C(C)(C)C5CC[C@]43C)C2C1 (stereo partly specified)
dataValue: -1.04% [at 11.6 µM] (inactive)
//
molecule: O=S(=O)(NC1CCC(c2cc(F)ccc2F)(S(=O)(=O)c2ccc(Cl)cc2)CC1)C(F)(F)F (stereo unspecified)
dataValue: inactive
//
molecule: COc1ccc(C(O)C(C)OC2OC(CO)C(O)C(O)C2O)cc1 (stereo unspecified)
dataValue: inactive
//
molecule: CC(=O)O[C@H]1[C@@H](O)[C@H](O[C@H]2[C@@H]3C=CO[C@@H](O[C@H]4O[C@@H](CO)[C@H](O)[C@@H](O)[C@@H]4O)[C@@H]3[C@@]3(CO)O[C@@H]23)O[C@@H](C)[C@@H]1OC(=O)/C=C/c1ccccc1
dataValue: inactive
//
molecule: CC(C)(C)NCCCNC(=O)c1cccc(Br)c1
dataValue: inactive

Continue with the next molecule.
Give the reported activity change, negative = cytotoxicity for `C[C@@H]1C(=O)O[C@H]2C[C@]34[C@H]5C[C@@H](C(C)(C)C)[C@]36[C@@H](OC(=O)[C@H]6O)O[C@]4(C(=O)O5)[C@]21O` (system: C33A).
inactive
